B1: IKZF1 (parent)
chain: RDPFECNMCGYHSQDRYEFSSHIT

variants of: B1; assay: protein stability index of a GFP-peptide fusion (GPS, HEK-293T) (PSI 1-6); higher = more stable; conditions: c terminus: a fixed tail appended;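 note: lentivirally expressed fusions sorted by FACS into six bins by GFP to DsRed ratio, PSI derived from sequencing read proportions per bin multiplied by bin number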
MEASURED PROPERTY: protein stability index

Query :: # input variant: "M8F" ; wanted: its protein stability index
Result :: 2.23

Query :: Next entry: "Q14P"
Result :: 2.3

Query :: Next entry: "S20H"
Result :: 2.21

Query :: Next entry: "F4P"
Result :: 2.54

Query :: Next entry: "G10V"
Result :: 2.07

Query :: Next entry: "S21G"
Result :: 2.38

Query :: Next entry: "C6K"
Result :: 2.49

Query :: Next entry: "S20K"
Result :: 1.93

Query :: Next entry: "Y11T"
Result :: 2.6

Query :: Next entry: "S21D"
Result :: 2.17

Query :: Next entry: "F19M"
Result :: 2.28
